I'd appreciate it if you could supply IC50 values for the items below.
- assayTarget: T1, CD47 on the surface of CD47+ cells (human, UniProt Q08722 19-323)
- T1 construct: whole, on cells; also called CD47+ cell lines; CD47 on Raji cells, HCT-15 cells, human red blood cells (RBCs), human platelets
- methodNotes: flow cytometry, competition with SIRPA-mIgG2a on CD47+ tumor cells; IC50 as grade, legend the 8th table, row 26

Read the entry M.20B10E9 (antibody, human IgG1, kappa, V domains shown, Chimeric: mouse variable domains, human IgG1 and human kappa constant regions) VH: EVQLQQSGAELVRPGASVKLSCTASGFNIEDTYMHWVKQRPEQGLEWIGRIDPANGKTKSDPKFQGKATITTDTSSNTAYLQLSSLTSEDTAVYYCAKGDGYYVGGLDYWGQGTTLTVSS VL: DIQMNQSPSSLSASLGDTITITCHASQNIHVWLSWYQQKPGNIPKLLIYKASNLHTGVPSRFSGSGSGTGFTLTISSLQPEDIATYYCQQGQSYPYTFGGGTKLEIKR and write its reported IC50.
0.1 to 1 nM

Read the entry R.13A2 (antibody, human IgG1, kappa, V domains shown, Chimeric: rabbit variable domains, human IgG1 and human kappa constant regions) VH: QSLEESGGDLVKPGASLTVTCTASGFSFSSYYYVCWVRQAPGKGLEWIACIYAGSSGDTYYASWAKGRFTISKTSSTTVTLQMTSLTAADTATYFCARGYTGYSYQFNFWGPGTLVTVSS VL: DVVMTQTPASVEAAVGGTVTIKCQASQSISNELSWYQQKPGQPPKLLIYRASTLESGVPSRFKGSGSGTEFTLTISDLESADAATYYCQCTYITYGNAFGGGTEVVVKR and write its reported IC50.
0.1 to 1 nM

Read the entry R.14G4 (antibody, human IgG1, kappa, V domains shown, Chimeric: rabbit variable domains, human IgG1 and human kappa constant regions) VH: QEQLKESGGGLVTPGGTLTLTCTASGFTITSYHMCWVRQAPGKGLEWIGCIYPNNGFTWYASWAKGRFTISKTSSTTVDLKMTSPTTEEMATYFCARGSGNSYNQLDLWGQGTLVTVSS VL: AIVMTQTPASVSATLGGSVTINCQSSESVYRDNCLGWFQQKPGQPPKLLIYKASTLASGVPSRFKGSGSGTQFTLTISDVVSDDAATYYCAGYKSTITDGTAFGGGTEVVVKR and write its reported IC50.
1 to 5 nM

Read the entry R.1B11 (antibody, human IgG1, kappa, V domains shown, Chimeric: rabbit variable domains, human IgG1 and human kappa constant regions) VH: QSLEESGGRLVTPGTPLTLTCTASGFSLNSYHMSWVRQAPGEGLEWIGIIYADTGNADYASWTKGRFTISKASTTVELRITSPTSEDTATYFCARGPTNTYPTYFALWGPGTLVTVSS VL: AFELTQTPSSVEAAVGGTVTIKCQASQSITTYLAWYQQKPGQPPKLLIYGASNLESGVPSRFKGSRSGTEYTLTISDLESADAATYYCQSYYAISKSAFGGGTEVVVKR and write its reported IC50.
0.1 to 1 nM

Read the entry M.30A5C6 (antibody, human IgG1, kappa, V domains shown, Chimeric: mouse variable domains, human IgG1 and human kappa constant regions) VH: EVQLQQSGAELVKPGASVKLSCTASGFNIEDTYMHWVKQRPEQGLEWIGRIDPANGNTKYDPKFQGKATVTADTSSNTAYLQLSSLTSEDTAVYCCARGDGHYVGGLNYWGQGTSLTVSS VL: DIQMNQSPSSLSASLGDTITITCHASQNINVWLSWYQQKPGNIPKLLIYKASNLHTGVPSRFSGSGSGTGFTLTISSLQPEDIATYYCQQGQNYPYTFGGGTKLEIKR and write its reported IC50.
0.1 to 1 nM
